EXPERIMENT SUMMARY: The drug is tested on Bifidobacterium longum strain: DSM20088 for biotransformation under microaerobic condition. The drug concentrations were measured over 6 timepoints collected between 0 and 12 hours of incubation by liquid-chromatography-coupled mass spectrometry (LC–MS)
Assay type: ADME
Set-up: dose 5 uM, timepoint 0, 1.5, 3, 6, 9, 12 hours
MEASUREMENT CONDITIONS: 5 µM
ASSAY ENDPOINT: Bacterial Biotransformation

CN(Cc1cnc2nc(N)nc(N)c2n1)c1ccc(C(=O)N[C@@H](CCC(=O)O)C(=O)O)cc1 [METHOTREXATE]	Compound NOT metabolized
CCOC(=O)C1=C(COCCN)NC(C)=C(C(=O)OC)C1c1ccccc1Cl (centres undefined) [AMLODIPINE]	Compound NOT metabolized
COc1ccc([C@@H]2Sc3ccccc3N(CCN(C)C)C(=O)[C@@H]2OC(C)=O)cc1 [DILTIAZEM]	Compound NOT metabolized

meta.source: ChEMBL document CHEMBL5724806
